- Tested on: T. brucei bloodstream forms
- METHOD SUMMARY: Activity toward T. brucei bloodstream forms
- Assay type: cell-based, T. brucei brucei Lister 427
- MEASUREMENT CONDITIONS: Trypanosoma brucei, 72 h, read-out: T. brucei EC50 (μM)
Rule: EC50 below 8 µM gives Yes. Equal to or above 8 µM gives No.

Below, 3 compounds whose answers are already recorded.
Cc1cc2nc(NC(=N)N)[nH]c2cc1C; No
N=C(N)Nc1nc2ccccc2[nH]1; No
CC1(C)N=C(N)N=C(N)N1c1ccc(Cl)cc1 [Cyc, cycloguanil, reference compound]; No

Criterion: EC50 strictly below 8 µM. Is it met by CN(Cc1cnc2nc(N)nc(N)c2n1)c1ccc(C(=O)N[C@@H](CCC(=O)O)C(=O)O)cc1 [MTX, methotrexate, reference compound] ?
No

Criterion: EC50 strictly below 8 µM. Is it met by N=C(N)c1ccc(OCCCCCOc2ccc(C(=N)N)cc2)cc1 [PENT, pentamidine, reference compound] ?
Yes

Criterion: EC50 strictly below 8 µM. Is it met by CCc1nc(N)nc(N)c1-c1ccc(Cl)cc1 [Pyr, pyrimethamine, reference compound] ?
No

Criterion: EC50 strictly below 8 µM. Is it met by N=C(N)Nc1nc2cc(Cl)cc(Cl)c2[nH]1 ?
Yes

----------
- TARGET SYSTEM: TcDHFR (Trypanosoma cruzi)
- Sequence (Q27793 whole entry): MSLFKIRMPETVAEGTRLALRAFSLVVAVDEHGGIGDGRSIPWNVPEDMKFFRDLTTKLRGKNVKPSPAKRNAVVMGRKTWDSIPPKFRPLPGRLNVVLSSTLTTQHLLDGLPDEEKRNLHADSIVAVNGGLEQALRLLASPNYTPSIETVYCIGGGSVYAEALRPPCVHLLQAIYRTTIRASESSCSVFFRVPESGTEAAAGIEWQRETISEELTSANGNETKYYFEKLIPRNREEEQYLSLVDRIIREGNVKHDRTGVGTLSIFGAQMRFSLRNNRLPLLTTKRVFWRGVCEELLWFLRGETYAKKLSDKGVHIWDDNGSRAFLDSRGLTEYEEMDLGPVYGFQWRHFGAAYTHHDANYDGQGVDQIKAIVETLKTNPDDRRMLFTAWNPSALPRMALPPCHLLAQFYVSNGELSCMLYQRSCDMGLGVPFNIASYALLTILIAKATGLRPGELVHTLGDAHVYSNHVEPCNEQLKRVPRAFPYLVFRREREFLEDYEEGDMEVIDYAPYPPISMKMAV
ENDPOINT: Ki (nM)
Response body: numeric value in nM, unit text excluded.

For TcDHFR (Trypanosoma cruzi), give the measured Ki of the entry Cc1cc2nc(NC(=N)N)[nH]c2cc1C
600

----------
- Tested on: L. infantum promastigotes
- METHOD SUMMARY: L. infantum promastigotes viability assay
- Type: cell-based, L. infantum MHOM/TN/80/IPT1
- MEASUREMENT CONDITIONS: Leishmania infantum, 72 h, read-out: L. infantum EC50 (μM)
ENDPOINT: EC50 (µM)
Response body: numeric value in µM, unit text excluded.

N=C(N)Nc1nc2cc(Cl)c(Cl)cc2[nH]1; 22.5

Determine from records and report EC50 for CCc1nc(N)nc(N)c1-c1ccc(Cl)cc1 [Pyr, pyrimethamine, reference compound]
99.2

Determine from records and report EC50 for N=C(N)Nc1nc2cc(Cl)cc(Cl)c2[nH]1
6.62

Determine from records and report EC50 for CCCCCCCCCCCCCCCCOP(=O)([O-])OCC[N+](C)(C)C [MLF, miltefosine, reference compound]
10.9

----------
Recorded pKi values (TbTS (Trypanosoma brucei brucei)) are given below.
pKi here: minus log base 10 of the concentration, concentration in moles per litre.

Below: 3 compounds and their reported pKi.
N=C(N)Nc1nc2cc(Cl)cc(Cl)c2[nH]1; 4.69
Cc1cc2nc(NC(=N)N)[nH]c2cc1C; 4.74
N=C(N)Nc1nc2ccccc2[nH]1; 4.63

For TbTS (Trypanosoma brucei brucei), give the measured pKi of the entry N=C(N)Nc1nc2cc(Cl)c(Cl)cc2[nH]1
4.30

----------
- TARGET SYSTEM: TbPTR1 (Trypanosoma brucei brucei)
- Sequence (O76290 1-268): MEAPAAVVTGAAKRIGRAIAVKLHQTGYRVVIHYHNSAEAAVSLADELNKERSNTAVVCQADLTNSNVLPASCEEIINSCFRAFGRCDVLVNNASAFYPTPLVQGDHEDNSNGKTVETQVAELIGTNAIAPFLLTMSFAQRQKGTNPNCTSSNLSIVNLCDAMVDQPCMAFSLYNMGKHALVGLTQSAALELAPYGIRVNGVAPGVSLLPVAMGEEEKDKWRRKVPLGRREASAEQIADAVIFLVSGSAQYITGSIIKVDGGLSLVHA
Reported pKi by item:
pKi here: minus log base 10 of the concentration, concentration in moles per litre.

N=C(N)Nc1nc2ccccc2[nH]1; 4.88
Cc1cc2nc(NC(=N)N)[nH]c2cc1C; 4.27

Determine from records and report pKi for N=C(N)Nc1nc2cc(Cl)c(Cl)cc2[nH]1
5.49

Determine from records and report pKi for N=C(N)Nc1nc2cc(Cl)cc(Cl)c2[nH]1
5.31

Determine from records and report pKi for CC1(C)N=C(N)N=C(N)N1c1ccc(Cl)cc1 [Cyc, cycloguanil, reference compound]
5.38

----------
- Tested on: T. brucei bloodstream forms
- METHOD SUMMARY: Activity toward T. brucei bloodstream forms
- Format: cell-based, T. brucei brucei Lister 427
- MEASUREMENT CONDITIONS: Trypanosoma brucei, 72 h, read-out: T. brucei EC50 (μM) folate deficiency
ENDPOINT: log10 of EC50 (log10 of the value in µM)
A value of 2 here means EC50 of 100 in µM, since values are log10.

For T. brucei bloodstream forms, give the measured log10 of EC50 of the entry CCc1nc(N)nc(N)c1-c1ccc(Cl)cc1 [Pyr, pyrimethamine, reference compound]
0.32

----------
- Tested on: L. infantum promastigotes
- METHOD SUMMARY: L. infantum promastigotes viability assay
- Type: cell-based, L. infantum MHOM/TN/80/IPT1
- MEASUREMENT CONDITIONS: Leishmania infantum, 72 h, read-out: L. infantum EC50 (μM)
ENDPOINT: EC50

Below: 2 molecules and their reported EC50.
CC1(C)N=C(N)N=C(N)N1c1ccc(Cl)cc1 [Cyc, cycloguanil, reference compound]; > 80 µM
Cc1cc2nc(NC(=N)N)[nH]c2cc1C; > 20 µM

Pending molecule:
Determine from records and report EC50 for N=C(N)Nc1nc2ccccc2[nH]1
> 20 µM

----------
Reported EC50 by item:
- System: T. brucei bloodstream forms
- METHOD SUMMARY: Activity toward T. brucei bloodstream forms
- Assay type: cell-based, T. brucei brucei Lister 427
- MEASUREMENT CONDITIONS: Trypanosoma brucei, 72 h, read-out: T. brucei EC50 (μM) folate deficiency

Below: 3 compounds and their reported EC50.
N=C(N)Nc1nc2ccccc2[nH]1; > 20 µM
N=C(N)Nc1nc2cc(Cl)c(Cl)cc2[nH]1; 6.52 µM
Cc1cc2nc(NC(=N)N)[nH]c2cc1C; 13.8 µM

Determine from records and report EC50 for CC1(C)N=C(N)N=C(N)N1c1ccc(Cl)cc1 [Cyc, cycloguanil, reference compound]
27.2 µM

Determine from records and report EC50 for CN(Cc1cnc2nc(N)nc(N)c2n1)c1ccc(C(=O)N[C@@H](CCC(=O)O)C(=O)O)cc1 [MTX, methotrexate, reference compound]
0.0054 µM

Determine from records and report EC50 for N=C(N)Nc1nc2cc(Cl)cc(Cl)c2[nH]1
5.97 µM

Measured values drawn from paper PMC11537224 for this set.
